I'd appreciate it if you could supply MIC values for the items below.
# Tested on: Staphylococcus aureus
# assayMethodText: Antibacterial activity against quinolone-resistant Staphylococcus aureus CCARM 3505 after 20 hrs by two fold serial dilution assay
# Type: functional
# testSettings: CCARM 3505, 20 h
One number for each entry, in µg/mL.

Example cases with answers are listed next.
1) O=C(O)[C@@H](Cc1ccccc1)N1C(=O)/C(=C/c2cn(-c3ccccc3)nc2-c2ccccc2F)SC1=S; 2
2) O=C(O)[C@@H](Cc1ccccc1)N1C(=O)/C(=C/c2cn(-c3ccccc3)nc2-c2ccc3ccccc3c2)SC1=S; 16

Working through the 2 molecules below one at a time, give MIC for each.
1. O=C(O)[C@@H](Cc1ccccc1)N1C(=O)/C(=C/c2cn(-c3ccccc3)nc2-c2cccc(Br)c2)SC1=S
2. Cc1onc(-c2ccccc2)c1C(=O)N[C@@H]1C(=O)N2[C@@H]1SC(C)(C)[C@@H]2C(=O)O [OXACILLIN]

stdout:
1: 4; 2: 1
